- measurement context: Study 1, healthy subjects; oral repaglinide 1 mg, metformin 500 mg, pitavastatin 2 mg, caffeine 100 mg, efavirenz 50 mg, midazolam 2 mg or digoxin 0.25 mg without rezafungin; plasma, LC-MS/MS, NCA
attribute measured: AUC0–t, geometric LSM value, alone

Completed entries (count: 2):
CN(C)C(=N)N=C(N)N [Metformin] : 7,333.63 ng · h/mL
O=C1Nc2ccc(Cl)cc2[C@@](C#CC2CC2)(C(F)(F)F)O1 [Efavirenz] : 7,557.26 ng · h/mL

Consider the record given below.
**Query** Report AUC0–t, geometric LSM value, alone, nothing else, for this compound: Cn1c(=O)c2c(ncn2C)n(C)c1=O [Caffeine]
**Result** 17,230.22 ng · h/mL

----------
Below, each entry is listed with its recorded AUC0–∞, geometric LSM value, alone.
- measurement context: Study 1, healthy subjects; oral repaglinide 1 mg, metformin 500 mg, pitavastatin 2 mg, caffeine 100 mg, efavirenz 50 mg, midazolam 2 mg or digoxin 0.25 mg without rezafungin; plasma, LC-MS/MS, NCA

O=C1Nc2ccc(Cl)cc2[C@@](C#CC2CC2)(C(F)(F)F)O1 [Efavirenz] : 14,368.15 ng · h/mL
Cn1c(=O)c2c(ncn2C)n(C)c1=O [Caffeine] : 18,897.70 ng · h/mL

Now let's try a different one.
**Query** Quote AUC0–∞, geometric LSM value, alone reported for CN(C)C(=N)N=C(N)N [Metformin] please.
**Result** 7,446.67 ng · h/mL

----------
We begin with a simple list: items and their reported AUC0–∞, geometric mean ratio (drug + rezafungin / drug alone).
- measurement context: Study 1; rezafungin 400 mg i.v. (day 10 or 15); geometric LSM ratio x 100, ANOVA
Give the value in % but do not write % after it.

O=C(O)C[C@H](O)C[C@H](O)/C=C/c1c(C2CC2)nc2ccccc2c1-c1ccc(F)cc1 [Pitavastatin] : 105.93
Cn1c(=O)c2c(ncn2C)n(C)c1=O [Caffeine] : 110.35
CC(C)c1nc(N(C)S(C)(=O)=O)nc(-c2ccc(F)cc2)c1/C=C/[C@@H](O)C[C@@H](O)CC(=O)O [Rosuvastatin] : 113.55

Now look at this one.
**Query** Report measured AUC0–∞, geometric mean ratio (drug + rezafungin / drug alone); entry is Cc1ncc2n1-c1ccc(Cl)cc1C(c1ccccc1F)=NC2 [Midazolam]
**Result** 101.78

----------
- measurement context: Study 1, healthy subjects; oral metformin 500 mg, pitavastatin 2 mg (day 10) or caffeine 100 mg, efavirenz 50 mg, midazolam 2 mg, digoxin 0.25 mg (day 15) with i.v. rezafungin 400 mg; plasma, LC-MS/MS, NCA
attribute measured: AUC0–t, geometric LSM value, + rezafungin

Take a look at these entries with their results.
Cn1c(=O)c2c(ncn2C)n(C)c1=O : 18,475.36 ng · h/mL
O=C1Nc2ccc(Cl)cc2[C@@](C#CC2CC2)(C(F)(F)F)O1 : 7,698.46 ng · h/mL

**Query** For the compound `CN(C)C(=N)N=C(N)N` , report AUC0–t, geometric LSM value, + rezafungin.
**Result** 7,257.55 ng · h/mL
